Experiment: Pharmacokinetics of α-MG after oral administration to mice (automated microsampling)
Format: in vivo
Details: mouse, plasma, oral, 10 mg/kg
Procedure: The surgical procedures were conducted under intramuscular injection anesthesia with 125 mg (1.5 mL)/kg of tiletamine HCl and zolazepam HCl mixture. […] Standard methods were used to calculate the following pharmacokinetic parameters using a non-compartmental analysis (WinNonlin 2.1; Pharmasight Corp., Mountain View, CA). The extent of absolute oral bioavailability (F) was calculated by dividing the AUCoral/AUCiv at the same dose. […]
property-name: Cmax (ng/mL)
Field: numeric (ng/mL). Do not append units.

**Query** If you can, please state the reported Cmax value of COc1c(O)cc2oc3cc(O)c(CC=C(C)C)c(O)c3c(=O)c2c1CC=C(C)C [α-MG, α-Mangostin] .
**Result** 40.3
